target: Serine/threonine-protein kinase B-raf (Homo sapiens, UniProt P15056); test: Inhibition of BRAF (unknown origin) (416 to 766) assessed as using inactive phosphorylated MAP2K1 substrate preincubated for 30 mins measured after 90 mins by DELFIA assay
Sequence (P15056 whole entry): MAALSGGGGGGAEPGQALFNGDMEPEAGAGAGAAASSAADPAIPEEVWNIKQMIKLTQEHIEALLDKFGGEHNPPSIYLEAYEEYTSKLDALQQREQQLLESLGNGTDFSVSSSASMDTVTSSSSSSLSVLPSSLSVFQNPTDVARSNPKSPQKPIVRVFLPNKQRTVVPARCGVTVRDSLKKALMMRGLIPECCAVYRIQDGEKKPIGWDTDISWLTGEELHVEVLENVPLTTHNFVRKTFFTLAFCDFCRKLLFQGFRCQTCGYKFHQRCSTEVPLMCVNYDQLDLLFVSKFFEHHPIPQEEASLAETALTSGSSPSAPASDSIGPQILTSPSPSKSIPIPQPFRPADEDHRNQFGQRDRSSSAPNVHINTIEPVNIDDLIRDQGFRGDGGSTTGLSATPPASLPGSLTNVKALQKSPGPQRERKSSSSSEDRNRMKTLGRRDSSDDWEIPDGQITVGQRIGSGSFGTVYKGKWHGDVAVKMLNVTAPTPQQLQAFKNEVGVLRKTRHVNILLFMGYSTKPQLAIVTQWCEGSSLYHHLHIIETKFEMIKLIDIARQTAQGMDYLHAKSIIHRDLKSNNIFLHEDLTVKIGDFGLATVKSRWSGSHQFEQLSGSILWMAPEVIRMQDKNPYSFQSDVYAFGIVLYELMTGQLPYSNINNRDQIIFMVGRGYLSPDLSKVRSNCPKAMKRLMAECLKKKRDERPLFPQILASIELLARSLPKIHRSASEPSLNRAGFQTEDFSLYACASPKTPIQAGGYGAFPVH
For each record, write down the corresponding pKi.
Answers are plain numbers, as −log10 of the molar value.

Consider the worked cases shown below.
Lab note: measured pKi of Cc1cc(F)c(NC(=O)c2cccc(C(C)(C)C#N)c2)cc1-c1cnc2c(=O)n(C)ncc2c1 was 9.72

Lab note: measured pKi of Cc1cc(F)c(C(=O)NCCCC(C)(C)C)cc1-c1ccc2c(=O)n(C)ncc2c1 was 9.92

New cases:
Lab note: measured pKi of CNc1ncc2cc(-c3cc(NC(=O)NCCC(C)(C)C)c(F)cc3C)c(=O)n(C)c2n1 was 9.99
